Molecular target: Beta-lactamase (Enterobacter cloacae)
Experiment: Inhibition of Enterobacter cloacae P99 beta-lactamase assessed as residual activity at 100 uM at pH 5 using acetate buffer by spectrophotometry; values are per cent of control
endpointName: residual activity (%)
The answer is to be given in %; state only the numeric part.

See these solved cases before continuing.
COC(=O)C(N)(CC(=O)O)CC(=O)O = 93
O=C(O)CC(CC(=O)O)(NC(=O)COc1ccccc1)C(=O)O = 100
CCOC(=O)CCC1(C(=O)OCC)CCC(=O)N1 (stereo unspecified) = 100
NC(C(=O)O)C(CC(=O)O)C(=O)O (stereo unspecified) = 94
CCOC(=O)C1CC(=O)NC1C(=O)OCC (stereo unspecified) = 100

Q) Look up residual activity: COC(=O)CC(N)(CC(=O)OC)C(=O)O
A) 73
